B1: Steroid hormone receptor ERR2, residues 100 to 176; numbered along this chain, O95718 (parent)
chain: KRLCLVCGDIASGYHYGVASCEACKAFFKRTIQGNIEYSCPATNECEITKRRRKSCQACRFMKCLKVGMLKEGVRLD

- Variants of: B1
- Test: abundance fitness (aPCA) (normalised: wild type 0, dead -1); higher = more abundant; growth selection in yeast, the domain comes from the species named
- Setup Conditions: Homo sapiens
Listed here: items and their measured abundance fitness.

[[record]]
query_sequence = "KRLCLVCGDIASGYHYGVASCEACKAFFKRTIQGNIEYSCPATNECEITCRRRKSCQACRFMKCLKVGMLKEGVRLD"
observable = "abundance fitness"
value_measured = -0.51

[[record]]
query_sequence = "KRLCLVCGDIASGYHYGVASCEACKAFFKRTIQGNIPYSCPATNECEITKRRRKSCQACRFMKCLKVGMLKEGVRLD"
observable = "abundance fitness"
value_measured = -0.507


Value of abundance fitness reported for the variant `KRLCLVCGRIASGYHYGVASCEACKAFFKRTIQGNIEYSCPATNECEITKRRRKSCQACRFMKCLKVGMLKEGVRLD` is -0.508
